Assay: Liver microsomal stability, rat
Details: rat, liver microsomes, pH 7.4
value type: half-life at 1 μM

> print(dat)
                           substance.smiles  readout.value
1   O=C(c1cccc(Cl)c1Cl)c1c[nH]c2ccc(Cl)cc12       25.6 min
2     COc1ccc(C(=O)c2c[nH]c3ccc(Cl)cc23)cc1         43 min
3  O=C(C1CC1)n1c(-c2cccc3ccccc23)cc2cc(Cl)ccc21       13.3 min
4    O=c1c2cccc3cccc(c32)c2nc3cc(Cl)ccc3n12       11.4 min
5  O=S(=O)(c1ccc2ccccc2c1)n1c(-c2cccc3ccccc23)nc2cc(Cl)ccc21       36.5 min
6  CN(C)c1ccc(C(=O)c2c[nH]c3ccc(Cl)cc23)cc1         31 min
7  O=C(c1ccc(F)c(F)c1)n1c(-c2ccc(-c3ccccc3)cc2)nc2ccc(Cl)cc21       28.7 min
8  O=C(c1ccc(SC(F)(F)F)cc1)c1c[nH]c2ccc(Cl)cc12       14.3 min
9  CCc1ccc(S(=O)(=O)n2c(-c3cccc4ccccc34)nc3ccc(Cl)cc32)cc1       16.3 min

Values compiled from patent US12473262B2.
